molecular target: Phosphodiesterase 1 (Homo sapiens, UniProt P54750+Q01064+Q14123); test: Inhibition of PDE1 at 10 uM; type: protein assay; set-up: scale not given: the % may be the effect or the level left
parameter_measured: Activity (%)

Here is how some molecules turned out for Activity.
{"molecule": "CCOc1ccc2nc(SCC(=O)NCc3ccc(C(=O)O)cc3)sc2c1", "measure_unit": "%", "Activity": 12}
{"molecule": "O=C(CSc1nnc(-c2ccccc2O)o1)NNC(=O)Cc1ccccc1", "measure_unit": "%", "Activity": 22}
{"molecule": "COc1ccc(-c2csc(-n3[nH]c(C)c(C(c4ccccc4)C(C#N)C(N)=O)c3=O)n2)cc1 (configuration not stated)", "measure_unit": "%", "Activity": 9}
{"molecule": "COc1cc(C2CC(=O)NC(SCC(=O)Nc3ccc(Br)cc3)=C2C#N)ccc1O (configuration not stated)", "measure_unit": "%", "Activity": 25}
{"molecule": "Cc1cccc(NCc2n[nH]c(SCC(=O)Nc3cc([N+](=O)[O-])ccc3Cl)n2)c1", "measure_unit": "%", "Activity": 22}

(I) COc1cc(/C=C2\SC(=S)N(CC(=O)O)C2=O)ccc1OC(=O)c1cccs1
(II) COc1ccc(-c2nc(NC(=O)CSCC(=O)O)sc2C)cc1
Prompt line: Task for the reader: decide whether I or II has the larger Activity. Give the label under which the chosen entry appears.
Response line: I
(I: 59%, II: 21%)

(I) Cc1oc(C(=O)N2CCCC2C(=O)O)cc1COc1ccc2oc3ccccc3c2c1 (configuration not stated)
(II) N#CC1=C(N)OC2=C(C(=O)CCC2)C1c1ccc(OCC(=O)Nc2cccc(C(F)(F)F)c2)cc1 (configuration not stated)
Prompt line: Kindly identify the item with the lower Activity figure among these two: I and II Answer format: the label of the selected item.
Response line: II
(II: 9%, I: 42%)

(P) Cc1cc(C(=O)Nc2cccc(C(=O)O)c2)cc(S(=O)(=O)Nc2cccc(C(=O)O)c2)c1C
(Q) Cc1cc(C)nc(NS(=O)(=O)c2ccc(NC(=O)c3cccc(NC(=O)C(F)(F)F)c3)cc2)n1
Prompt line: Kindly compare P with Q and tell me which has the lower Activity figure. Refer to your chosen item by its label in the answer.
Response line: Q
(Q: 15%, P: 49%)

---

Reported pIC50, cGMP-specific 3',5'-cyclic phosphodiesterase (Homo sapiens).
pIC50: −log10 of the molar value.
parameter_measured: pIC50

{"compound": "Cn1c(=O)[nH]c(=O)c2c1nc(S)n2CC(O)COc1ccc2ccccc2c1 (centres undefined)", "tested_system": "cGMP-specific 3',5'-cyclic phosphodiesterase (Homo sapiens)", "assay_value": 5.06}

(a) N#Cc1c(/N=C/c2ccc(-c3ccc(C(=O)O)cc3)o2)sc2c1CCCC2
(b) N#Cc1c(C(F)(F)F)cc(-c2cccs2)nc1SCc1ccc(C(=O)O)cc1
Prompt line: Choose between a and b : whose measured pIC50 value is numerically larger? // respond with label for picked entry
Response line: b

---

target: cGMP-specific 3',5'-cyclic phosphodiesterase (Homo sapiens); assay: Inhibition of PDE5 at 10 uM; parameters: scale not given: the % may be the effect or the level left
parameter_measured: Activity (%)

{"molecule": "Cc1cc(C(=O)Nc2cccc(C(=O)O)c2)cc(S(=O)(=O)Nc2cccc(C(=O)O)c2)c1C", "Activity, %": 19}
{"molecule": "COc1cc(/C=C2\\SC(=S)N(CC(=O)O)C2=O)ccc1OC(=O)c1cccs1", "Activity, %": 46}
{"molecule": "COc1ccc(-c2nc(NC(=O)CSCC(=O)O)sc2C)cc1", "Activity, %": 51}
{"molecule": "Cc1cccc(NCc2n[nH]c(SCC(=O)Nc3cc([N+](=O)[O-])ccc3Cl)n2)c1", "Activity, %": 53}
{"molecule": "COc1ccc(-c2csc(-n3[nH]c(C)c(C(c4ccccc4)C(C#N)C(N)=O)c3=O)n2)cc1 (centres undefined)", "Activity, %": 42}
{"molecule": "NS(=O)(=O)c1ccc(-c2ccc(/C=C3/C(=O)NN(c4cccc(C(F)(F)F)c4)C3=O)o2)cc1", "Activity, %": 66}

(P) Cc1oc(C(=O)N2CCCC2C(=O)O)cc1COc1ccc2oc3ccccc3c2c1 (centres undefined)
(Q) O=C(CSc1nnc(-c2ccccc2O)o1)NNC(=O)Cc1ccccc1
(R) COc1cc(C2CC(=O)NC(SCC(=O)Nc3ccc(Br)cc3)=C2C#N)ccc1O (centres undefined)
Prompt line: Arrange the 3 molecules by rising Activity, starting with the smallest. Reply with the item labels sorted in the order that was asked for.
Response line: Q, R, P
(Q: 1%, R: 23%, P: 48%)

---

biological target: UniProt O76074; assay: Inhibition of PDE5 at 10 uM; design: scale not given: the % may be the effect or the level left
parameter_measured: Activity (%)

{"compound": "N#CC1=C(N)OC2=C(C(=O)CCC2)C1c1ccc(OCC(=O)Nc2cccc(C(F)(F)F)c2)cc1 (stereo not drawn)", "tested_system": "UniProt O76074", "Activity / %": 52}
{"compound": "Cc1cc(C)nc(NS(=O)(=O)c2ccc(NC(=O)c3cccc(NC(=O)C(F)(F)F)c3)cc2)n1", "tested_system": "UniProt O76074", "Activity / %": 44}
{"compound": "CCOc1ccc2nc(SCC(=O)NCc3ccc(C(=O)O)cc3)sc2c1", "tested_system": "UniProt O76074", "Activity / %": 39}

---

target: Phosphodiesterase 1 (Homo sapiens, UniProt P54750+Q01064+Q14123); experiment: Inhibition of PDE1; type: protein assay
parameter_measured: IC50 (µM)

(A) COc1ccccc1Nc1nc(-c2sc(N)nc2C)cs1
(B) Cn1c(=O)[nH]c(=O)c2c1nc(S)n2CC(O)COc1ccc2ccccc2c1 (configuration not stated)
Prompt line: Higher IC50 between A and B ? Let me know the label of the one you choose.
Response line: A
(A: 2.5 µM, B: 0.3 µM)

(I) Cc1ccc(-c2cc(C(=O)Nc3ccc(S(N)(=O)=O)cc3)c3ccccc3n2)s1
(II) O=C(O)c1ccc(-c2ccc(-c3nc(O)c4c5c(sc4n3)CCCC5)o2)cc1
Prompt line: For the pair I and II , which member has the lower IC50 number? // caller expects the label of the chosen entry
Response line: I
(I: 2.5 µM, II: 3.7 µM)

(A) N#Cc1c(C(F)(F)F)cc(-c2cccs2)nc1SCc1ccc(C(=O)O)cc1
(B) N#Cc1c(N)nc(SCC(=O)Nc2ccc(F)cc2)c(C#N)c1-c1ccccc1
Prompt line: Which entry shows the lesser value of IC50 here, A or B ? Output the label that corresponds to your choice.
Response line: A
(A: 1.9 µM, B: 5.7 µM)
